Sourced from patent US20150031693A1

- assayed.target: PAK1 (Homo sapiens, UniProt Q13153)
- Sequence (Q13153 whole entry): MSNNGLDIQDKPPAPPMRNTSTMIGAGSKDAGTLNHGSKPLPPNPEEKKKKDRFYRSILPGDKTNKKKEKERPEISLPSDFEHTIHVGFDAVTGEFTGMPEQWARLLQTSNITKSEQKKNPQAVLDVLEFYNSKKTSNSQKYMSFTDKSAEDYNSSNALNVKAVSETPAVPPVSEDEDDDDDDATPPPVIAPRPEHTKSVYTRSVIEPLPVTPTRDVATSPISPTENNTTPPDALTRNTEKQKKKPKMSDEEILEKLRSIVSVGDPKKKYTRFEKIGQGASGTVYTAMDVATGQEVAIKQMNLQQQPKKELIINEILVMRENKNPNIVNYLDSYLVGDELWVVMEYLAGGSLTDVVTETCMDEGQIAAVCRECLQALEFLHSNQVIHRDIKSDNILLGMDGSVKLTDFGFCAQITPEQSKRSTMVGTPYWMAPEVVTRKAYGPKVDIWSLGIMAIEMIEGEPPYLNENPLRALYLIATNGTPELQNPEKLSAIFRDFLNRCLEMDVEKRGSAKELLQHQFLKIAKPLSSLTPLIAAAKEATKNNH
- protocol.text: In vitro PAK inhibition assay (Z'-LYTE), PAK1
- Assay type: biochemical
Reported IC50 by item:

molecular.string	IC50
CCn1c(=O)c(-c2ccc(-c3nccnc3C)cc2Cl)cc2cnc(NCCO)nc21	50 to 500 nM
CCn1c(=O)c(-c2ccc(-c3cncc(C)n3)cc2Cl)cc2cnc(NCCOC)nc21	50 to 500 nM
CCn1c(=O)c(-c2ccc(-c3nccnc3C)cc2Cl)cc2cnc(NCCOC)nc21	50 to 500 nM
CCn1c(=O)c(-c2ccc(-c3cncc(C)n3)cc2Cl)cc2cnc(NCCCOC)nc21	50 to 500 nM
CCn1c(=O)c(-c2ccc(-c3cncc(C)n3)cc2Cl)cc2cnc(NCCCO)nc21	50 to 500 nM

IN: What value of IC50 has been reported for the following compound? Cc1cncc(-c2ccc(-c3cc4cnc(NC(CCO)CCO)nc4n(Cc4ccccc4C(F)(F)F)c3=O)c(Cl)c2)n1
OUT: 50 to 500 nM

IN: What value of IC50 has been reported for the following compound? CCn1c(=O)c(-c2ccc(-c3nccnc3C)cc2Cl)cc2cnc(NCCCO)nc21
OUT: 50 to 500 nM

IN: What value of IC50 has been reported for the following compound? CCn1c(=O)c(-c2ccc(-c3cncc(C)n3)cc2Cl)cc2cnc(NC(CCO)CCO)nc21
OUT: 500 to 5000 nM

IN: What value of IC50 has been reported for the following compound? CCn1c(=O)c(-c2ccc(-c3cncc(C)n3)cc2Cl)cc2cnc(NCCO)nc21
OUT: 50 to 500 nM

IN: What value of IC50 has been reported for the following compound? CCn1c(=O)c(-c2ccc(-c3nccnc3C)cc2Cl)cc2cnc(NC(CCO)CCO)nc21
OUT: 500 to 5000 nM

IN: What value of IC50 has been reported for the following compound? CCn1c(=O)c(-c2ccc(-c3nccnc3C)cc2Cl)cc2cnc(NCCCOC)nc21
OUT: 50 to 500 nM

###

- assayed.target: PAK4 (Homo sapiens, UniProt O96013)
- Sequence (O96013 whole entry): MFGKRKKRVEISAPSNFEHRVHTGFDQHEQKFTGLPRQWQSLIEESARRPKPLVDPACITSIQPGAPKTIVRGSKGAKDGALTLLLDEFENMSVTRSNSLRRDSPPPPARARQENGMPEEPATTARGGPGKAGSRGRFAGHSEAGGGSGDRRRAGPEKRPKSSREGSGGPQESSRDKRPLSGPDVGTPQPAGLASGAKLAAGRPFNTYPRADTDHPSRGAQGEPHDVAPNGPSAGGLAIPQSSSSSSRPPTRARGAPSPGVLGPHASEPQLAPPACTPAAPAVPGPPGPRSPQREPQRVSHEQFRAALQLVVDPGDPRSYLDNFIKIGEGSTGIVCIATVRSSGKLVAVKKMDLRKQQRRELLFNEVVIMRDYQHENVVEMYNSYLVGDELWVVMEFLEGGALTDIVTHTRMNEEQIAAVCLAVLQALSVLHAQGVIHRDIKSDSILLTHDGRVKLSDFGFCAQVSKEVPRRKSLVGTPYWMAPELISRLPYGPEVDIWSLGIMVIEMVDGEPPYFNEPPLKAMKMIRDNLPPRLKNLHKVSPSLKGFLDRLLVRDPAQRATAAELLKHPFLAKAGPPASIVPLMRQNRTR
- protocol.text: Additional in vitro PAK inhibition assay, PAK4
- Assay type: biochemical
- run.parameters: 10 μM ATP
measurement.kind: IC50

IN: What value of IC50 has been reported for the following compound? CCn1c(=O)c(-c2ccc(-c3noc(C)n3)cc2Cl)cc2cnc(N[C@@H]3COC[C@@H]3N3CCN(C)CC3)nc21
OUT: > 5 µM

###

- assayed.target: PAK1 (Homo sapiens)
- protocol.text: Additional in vitro PAK inhibition assay, PAK1
- Format: biochemical
- run.parameters: 1 mM ATP; read-out: PAK1 IC50 (1 mM ATP)
measurement.kind: IC50

IN: So what IC50 did CCn1c(=O)c(-c2ccc(-c3noc(C)n3)cc2Cl)cc2cnc(N[C@@H]3COC[C@@H]3N3CCN(C)CC3)nc21 get with PAK1 (Homo sapiens)?
OUT: > 5 µM

###

- assayed.target: PAK3 (Homo sapiens, UniProt O75914)
- Sequence (O75914 whole entry): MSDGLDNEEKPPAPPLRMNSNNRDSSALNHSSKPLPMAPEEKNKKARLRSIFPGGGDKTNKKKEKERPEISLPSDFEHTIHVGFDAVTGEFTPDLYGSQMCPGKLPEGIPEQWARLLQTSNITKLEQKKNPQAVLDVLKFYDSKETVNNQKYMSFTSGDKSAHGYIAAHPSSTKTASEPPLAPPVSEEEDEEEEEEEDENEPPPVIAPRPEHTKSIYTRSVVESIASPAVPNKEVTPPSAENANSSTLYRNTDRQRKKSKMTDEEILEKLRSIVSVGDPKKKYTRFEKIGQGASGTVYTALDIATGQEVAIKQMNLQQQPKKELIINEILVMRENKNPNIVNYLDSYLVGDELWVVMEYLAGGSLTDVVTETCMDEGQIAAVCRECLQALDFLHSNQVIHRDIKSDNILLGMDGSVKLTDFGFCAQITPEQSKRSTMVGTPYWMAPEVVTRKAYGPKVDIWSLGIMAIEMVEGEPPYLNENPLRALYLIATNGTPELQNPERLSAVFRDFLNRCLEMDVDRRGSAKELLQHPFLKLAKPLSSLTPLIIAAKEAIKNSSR
measurement.kind: IC50

molecular.string	IC50
CCn1c(=O)c(-c2ccc(-c3nccnc3C)cc2Cl)cc2cnc(NC(CCO)CCO)nc21	500 to 5000 nM

IN: What value of IC50 has been reported for the following compound? CCn1c(=O)c(-c2ccc(-c3cncc(C)n3)cc2Cl)cc2cnc(NCCOC)nc21
OUT: 500 to 5000 nM
